Where do the numbers come from? From paper PMC7588459.

assay.system: T1, Nipah virus attachment (receptor-binding) glycoprotein (GP), wild type (Nipah virus; strain of the assayed …, UniProt Q9IH62)
T1 construct: source: HEK 293-F FreeStyle, transiently transfected, purified from supernatant (Ni-NTA)
assay.protocol: ELISA
stated.conditions: both partners purified
We begin with a simple list: items and their reported Kd.
Unit nM implied. Number only.

• m102.4 VH K31A (antibody, V domains shown) VH: EVQVIQSGADVKKPGSSVKVSCKSSGGTFSAYAINWVRQAPGQGLEWMGGIIPILGIANYAQKFQGRVTITTDESTSTAYMELSSLRSEDTAVYYCARGWGREQLAPHPSQYYYYYYGMDVWGQGTTVTVSS VL: EIVMTQSPGTLSLAPGERATLSCWASQSVRNNYLAWYQQKPGQAPRLVIYNGSTRATGIPDRFSGSGSGTDFTLTISRLDPEDFAVYYCQQYGNSRRVTFGGGTKVEIK = 0.08
• m102.4 VH H108A (antibody, V domains shown) VH: EVQVIQSGADVKKPGSSVKVSCKSSGGTFSKYAINWVRQAPGQGLEWMGGIIPILGIANYAQKFQGRVTITTDESTSTAYMELSSLRSEDTAVYYCARGWGREQLAPAPSQYYYYYYGMDVWGQGTTVTVSS VL: EIVMTQSPGTLSLAPGERATLSCWASQSVRNNYLAWYQQKPGQAPRLVIYNGSTRATGIPDRFSGSGSGTDFTLTISRLDPEDFAVYYCQQYGNSRRVTFGGGTKVEIK = 0.09
• m102.4 VH P109A (antibody, V domains shown) VH: EVQVIQSGADVKKPGSSVKVSCKSSGGTFSKYAINWVRQAPGQGLEWMGGIIPILGIANYAQKFQGRVTITTDESTSTAYMELSSLRSEDTAVYYCARGWGREQLAPHASQYYYYYYGMDVWGQGTTVTVSS VL: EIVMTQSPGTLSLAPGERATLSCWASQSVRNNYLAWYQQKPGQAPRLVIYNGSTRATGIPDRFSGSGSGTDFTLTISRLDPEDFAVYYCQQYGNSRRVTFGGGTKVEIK = 0.1
• m102.4 VH Q111A (antibody, V domains shown) VH: EVQVIQSGADVKKPGSSVKVSCKSSGGTFSKYAINWVRQAPGQGLEWMGGIIPILGIANYAQKFQGRVTITTDESTSTAYMELSSLRSEDTAVYYCARGWGREQLAPHPSAYYYYYYGMDVWGQGTTVTVSS VL: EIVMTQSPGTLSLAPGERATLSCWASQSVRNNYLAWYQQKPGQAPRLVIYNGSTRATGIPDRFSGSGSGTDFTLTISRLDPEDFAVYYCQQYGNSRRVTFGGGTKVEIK = 0.08

Field Kd (entry m102.4 VH A106W (antibody, V domains shown) VH: EVQVIQSGADVKKPGSSVKVSCKSSGGTFSKYAINWVRQAPGQGLEWMGGIIPILGIANYAQKFQGRVTITTDESTSTAYMELSSLRSEDTAVYYCARGWGREQLWPHPSQYYYYYYGMDVWGQGTTVTVSS VL: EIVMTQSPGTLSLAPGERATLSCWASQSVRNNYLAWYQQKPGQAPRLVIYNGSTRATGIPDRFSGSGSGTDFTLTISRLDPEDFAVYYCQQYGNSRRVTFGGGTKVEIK ) reads 4.95
